Target: CYP2D6 (Homo sapiens)
Construct: purchased BD Bioscience
Sequence (P10635 whole entry): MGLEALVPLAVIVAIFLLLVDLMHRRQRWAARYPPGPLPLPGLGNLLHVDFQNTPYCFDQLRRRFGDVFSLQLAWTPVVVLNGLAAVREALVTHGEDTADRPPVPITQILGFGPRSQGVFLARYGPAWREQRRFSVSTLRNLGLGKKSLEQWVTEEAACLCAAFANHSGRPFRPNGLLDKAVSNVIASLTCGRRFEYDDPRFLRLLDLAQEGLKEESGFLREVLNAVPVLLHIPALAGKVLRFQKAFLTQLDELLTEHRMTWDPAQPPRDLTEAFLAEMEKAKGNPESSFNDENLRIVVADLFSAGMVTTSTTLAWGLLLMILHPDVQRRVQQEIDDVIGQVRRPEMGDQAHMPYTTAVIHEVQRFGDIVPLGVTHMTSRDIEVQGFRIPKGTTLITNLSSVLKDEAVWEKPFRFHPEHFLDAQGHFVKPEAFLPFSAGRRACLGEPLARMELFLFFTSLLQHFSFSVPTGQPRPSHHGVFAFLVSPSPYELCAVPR
Experiment: Inhibitory action on drug metabolizing enzyme (CYP2D6/AMMC high throughput inhibitor screening kit)
Assay type: in vitro ADME
Details: CYP2D6 expression system microsome, AMMC substrate, 37° C. for 30 minutes
Experimental: Inhibitory actions on CYP2D6 and CYP3A4 were measured by using a CYP2D6/AMMC high throughput inhibitor screening kit and a CYP3A4/BFC high throughput inhibitor screening kit (both manufactured by BD Bioscience), respectively. That is, an NADPH generation system, a cofactor, and the test compound were dispersed in a 96-well plate, and AMMC (CYP2D6) and BFC (CYP3A4), which were fluorescent substrates, were added to each well. […]
Overview of reported IC50 across a group of molecules:

| Molecule | IC50 |
| --- | --- |
| CC(c1ccccc1)c1n[nH]c2c1c(=O)n(-c1ccccc1)c1ncccc21 (centres unmarked) [Example 11] | > 10 µM |

Next:
IC50 in this record for O=c1c2c(Cc3ccccc3C(F)(F)F)n[nH]c2c2cccnc2n1-c1ccccc1 [Example 8] : > 10 µM

---

Recorded metric: melting point

Illustrative cases are given below, each with its answer.
| Compound | melting point |
| --- | --- |
| O=c1c2c(Cc3ccccc3)n[nH]c2c2ccccc2n1-c1ccccc1 | 255 to 257 °C |
| O=c1c2c(Cc3cccc(C(F)(F)F)c3)n[nH]c2c2cccnc2n1-c1cccc(OC(F)(F)F)c1 | 206 to 209 °C |
| O=c1c2c(Cc3cccc(C(F)(F)F)c3)n[nH]c2c2cccnc2n1-c1cccc(C(F)(F)F)c1 | 206 to 208 °C |
| O=c1c2c(Cc3ccccc3OC(F)(F)F)n[nH]c2c2cccnc2n1-c1ccccc1 (hydrate or solvate) | 275 °C (dec.) |
| O=c1c2c(Cc3ccccc3C(F)(F)F)n[nH]c2c2cccnc2n1-c1cccc(C(F)(F)F)c1 | 260 to 264 °C |
| O=c1c2c(Cc3ccc(F)cc3)n[nH]c2c2cccnc2n1-c1cccc(OC(F)(F)F)c1 (hydrate or solvate) | 226 to 228 °C |

melting point in this record for Cc1ccccc1Cc1n[nH]c2c1c(=O)n(-c1cccc(OC(F)(F)F)c1)c1ncccc21 (hydrate or solvate) : 240 to 242 °C

melting point in this record for O=c1c2c(Cc3ccccc3OC(F)(F)F)n[nH]c2c2cccnc2n1-c1cccc(OC(F)(F)F)c1 : 233 to 236 °C

melting point in this record for O=c1c2c(Cc3ccccc3)n[nH]c2c2ccncc2n1-c1ccccc1 : 303 to 307 °C

melting point in this record for O=c1c2c(Cc3ccccc3OC(F)(F)F)n[nH]c2c2cccnc2n1-c1cccc(C(F)(F)F)c1 : 247 to 252 °C

melting point in this record for O=c1c2c(Cc3ccccc3C(F)(F)F)n[nH]c2c2cccnc2n1-c1ccccc1 : 292 to 294 °C

melting point in this record for O=c1c2c(Cc3ccc(C(F)(F)F)cc3)n[nH]c2c2cccnc2n1-c1cccc(C(F)(F)F)c1 : 145 to 148 °C

---

Overview of reported melting point across a group of compounds:

| Compound | melting point |
| --- | --- |
| O=c1c2c(Cc3ccsc3)n[nH]c2c2cccnc2n1-c1cccc(OC(F)(F)F)c1 [Example 46] | 247 to 251 °C |

melting point in this record for O=c1c2c(Cc3cccc(OC(F)(F)F)c3)n[nH]c2c2cccnc2n1-c1cccc(C(F)(F)F)c1 [Example 21] : 129 to 132 °C

melting point in this record for O=c1c2c(Cc3ccccc3C(F)(F)F)n[nH]c2c2cccnc2n1-c1cccc(OC(F)(F)F)c1 [Example 23] : 252 to 255 °C

melting point in this record for O=c1c2c(Cc3ccccc3Cl)n[nH]c2c2cccnc2n1-c1cccc(OC(F)(F)F)c1 (hydrate or solvate) [Example 33] : 273 to 275 °C

melting point in this record for O=c1c2c(Cc3cccs3)n[nH]c2c2cccnc2n1-c1cccc(OC(F)(F)F)c1 [Example 45] : 234 to 238 °C

melting point in this record for COc1ccccc1Cc1n[nH]c2c1c(=O)n(-c1cccc(OC(F)(F)F)c1)c1ncccc21 (hydrate or solvate) [Example 31] : 243 to 245 °C

melting point in this record for Cc1ccc2c3[nH]nc(Cc4ccccc4)c3c(=O)n(-c3ccccc3)c2n1 (hydrate or solvate) [Example 3] : 300 to 302 °C

---

System: PDE IV isozyme separated from U937 cultured cell
Construct: PDE IV isozyme separated from U937 cultured cell by an ion exchange chromatography was used
Assay: PDE IV inhibitory action
Assay type: biochemical
Details: cAMP as substrate, 30° C. for 20 minutes, Probit method
Recorded metric: IC50 (µM)

Illustrative cases are given below, each with its answer.
| Compound | Measured on | IC50 (µM) |
| --- | --- | --- |
| O=c1c2c(Cc3ccccc3)n[nH]c2c2cccnc2n1-c1cccc(OC(F)(F)F)c1 | PDE IV isozyme separated from U937 cultured cell | 0.003 |
| O=c1c2c(Cc3ccccc3)n[nH]c2c2cccnc2n1-c1cccc(C(F)(F)F)c1 | PDE IV isozyme separated from U937 cultured cell | 0.007 |

[I] CC(c1ccccc1)c1n[nH]c2c1c(=O)n(-c1ccccc1)c1ncccc21 (stereo not shown)
[II] O=c1c2c(Cc3ccccc3C(F)(F)F)n[nH]c2c2cccnc2n1-c1ccccc1
**Query** Quick check, higher IC50 between I and II ? Please identify the chosen entry by its label.
**Result** I
(I: 0.014 µM, II: 0.003 µM)

---

Overview of reported melting point across a group of compounds:

Illustrative cases are given below, each with its answer.
| Compound | melting point |
| --- | --- |
| COc1ccccc1Cc1n[nH]c2c1c(=O)n(-c1cccc(C(F)(F)F)c1)c1ncccc21 (hydrate or solvate) [Example 37] | 229 to 231 °C |
| O=c1c2c(Cc3ccc(OC(F)(F)F)cc3)n[nH]c2c2cccnc2n1-c1cccc(OC(F)(F)F)c1 [Example 28] | 129 to 132 °C |
| O=c1c2c(Cc3ccccc3)n[nH]c2c2ncccc2n1-c1ccccc1 (hydrate or solvate) [Example 30] | 269 to 272 °C |
| CC(c1ccccc1)c1n[nH]c2c1c(=O)n(-c1cccc(C(F)(F)F)c1)c1ncccc21 (centres unmarked) [Example 42] | 235 to 237 °C |
| O=c1c2c(Cc3ccc(OC(F)(F)F)cc3)n[nH]c2c2cccnc2n1-c1ccccc1 (hydrate or solvate) [Example 6] | 216 to 218 °C |
| O=c1c2c(Cc3ccc(F)cc3)n[nH]c2c2cccnc2n1-c1cccc(C(F)(F)F)c1 (hydrate or solvate) [Example 38] | 243 to 245 °C |
| CC(c1ccccc1)c1n[nH]c2c1c(=O)n(-c1ccccc1)c1ncccc21 (centres unmarked) (hydrate or solvate) [Example 11] | 267 to 268 °C |

Next:
melting point in this record for COCc1n[nH]c2c1c(=O)n(-c1ccccc1)c1ncccc21 (hydrate or solvate) [Example 10] : 263 to 265 °C
